# Experimental Details: AF-16 concentration in plasma after intranasal or i.v. administration (Bachem AF-16 Enzyme Immunoassay)
# Assay type: in vivo, rat
# Experimental Context: male, Sprague-Dawley, rat, plasma, iv, 25 ul in a volume of 0.5 ml; control (uninjured) rats, i.v. via penis vein (25 μl in 0.5 ml), sample 30 min after dosing, enzyme immunoassay, mean ± SEM, n = 7
Residues, ends and D or L forms follow the SMILES beside them.
Quantity Measured: level at 0.5 h (ng/mL)
One number for each entry, in ng/mL.

Asked: Which level at 0.5 h is listed for CC(C)C[C@H](NC(=O)CNC(=O)[C@@H](NC(=O)[C@H](CC(N)=O)NC(=O)[C@H](CC(N)=O)NC(=O)[C@H](CCC(=O)O)NC(=O)[C@@H]1CCCN1C(=O)[C@H](CC(N)=O)NC(=O)[C@H](CO)NC(=O)[C@H](CCCNC(=N)N)NC(=O)[C@@H](NC(=O)[C@H](CCCCN)NC(=O)[C@H](CO)NC(=O)[C@H](Cc1c[nH]cn1)NC(=O)[C@H](CS)NC(=O)[C@@H](N)C(C)C)[C@@H](C)O)C(C)C)C(=O)O [AF-16] (H-VCHSKTRSNPENNVGL-OH) ?
Given back: 14.7

* * *

# Experimental Details: AF-16 concentration in plasma after intranasal or i.v. administration (Bachem AF-16 Enzyme Immunoassay)
# Type: in vivo, rat
# Experimental Context: male, Sprague-Dawley, rat, plasma, inhaled or intranasal, 100 ug per rat; control (uninjured) rats, intranasal (25 μl of 2,000 μg/ml in PBS in each nostril), sample 30 min after dosing, enzyme immunoassay, mean ± SEM, n = 9
Residues, ends and D or L forms follow the SMILES beside them.
Quantity Measured: level at 0.5 h (ng/mL)
Numbers only, in ng/mL.

Asked: Which level at 0.5 h is listed for CC(C)C[C@H](NC(=O)CNC(=O)[C@@H](NC(=O)[C@H](CC(N)=O)NC(=O)[C@H](CC(N)=O)NC(=O)[C@H](CCC(=O)O)NC(=O)[C@@H]1CCCN1C(=O)[C@H](CC(N)=O)NC(=O)[C@H](CO)NC(=O)[C@H](CCCNC(=N)N)NC(=O)[C@@H](NC(=O)[C@H](CCCCN)NC(=O)[C@H](CO)NC(=O)[C@H](Cc1c[nH]cn1)NC(=O)[C@H](CS)NC(=O)[C@@H](N)C(C)C)[C@@H](C)O)C(C)C)C(=O)O [AF-16] (H-VCHSKTRSNPENNVGL-OH) ?
Given back: 7.8
